target: mu opiate receptor (MOR) (Rattus norvegicus, UniProt P33535)
Construct: from tissue; host or cells: striatum (membrane preparation)
Sequence (P33535 whole entry): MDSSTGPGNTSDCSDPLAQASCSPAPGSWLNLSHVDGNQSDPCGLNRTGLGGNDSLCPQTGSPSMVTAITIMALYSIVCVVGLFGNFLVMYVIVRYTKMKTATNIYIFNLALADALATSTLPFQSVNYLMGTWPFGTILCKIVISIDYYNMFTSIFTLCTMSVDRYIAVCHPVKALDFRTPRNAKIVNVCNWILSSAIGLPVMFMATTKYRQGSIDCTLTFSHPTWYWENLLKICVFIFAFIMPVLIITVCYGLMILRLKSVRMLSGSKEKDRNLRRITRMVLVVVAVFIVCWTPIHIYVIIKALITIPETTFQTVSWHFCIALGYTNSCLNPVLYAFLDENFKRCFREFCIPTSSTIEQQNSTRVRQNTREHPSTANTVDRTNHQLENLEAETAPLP
Type: biochemical
measurement-conditions: 1 μM + βNFA; preliminary study, average of two runs
value-type: MOR agonist activity ([35S]GTPγS binding), compound as agonist (%)
Please give a number only; it is taken to be in %.

Task item: Can you share its MOR agonist activity ([35S]GTPγS binding), compound as agonist? I mean this compound: Cc1ccc(S(=O)(=O)N2CCOC23CCN(CC2CC2)CC3)cc1 [Compound C0134M]
Reply: 53.2

Task item: Can you share its MOR agonist activity ([35S]GTPγS binding), compound as agonist? I mean this compound: C=CCN1CCC2(CC1)OCCN2S(=O)(=O)c1ccc(C)cc1 [Compound 10]
Reply: 60.4

Task item: Can you share its MOR agonist activity ([35S]GTPγS binding), compound as agonist? I mean this compound: Cc1ccc(S(=O)(=O)N2CCOC23CCN(CC2CCC2)CC3)cc1 [Compound 9]
Reply: 56.6

Task item: Can you share its MOR agonist activity ([35S]GTPγS binding), compound as agonist? I mean this compound: O=S(=O)(c1ccc(OC(F)(F)F)cc1)N1CCOC12CCN(CC1CC1)CC2 [Compound 4]
Reply: 49.5

###

target: mu opiate receptor (MOR) (Rattus norvegicus, UniProt P33535)
Construct: from tissue; host or cells: striatum (membrane preparation)
Assay type: biochemical
Labelling field: enter 1 if recorded % DAMGO + BFNA is less than 400%. Enter 0 if it equals or exceeds that cut-off.

Task item: Say whether its % DAMGO + BFNA is strictly beneath 400%. Entry: CC1CCC(C(C)C)C(OCC(O)CN2CC(C)CC(C)C2)C1 (centres unmarked)
Reply: 0

Task item: Say whether its % DAMGO + BFNA is strictly beneath 400%. Entry: COc1c2c(cc3c1C(CC(=O)Cc1ccccc1F)[N+](C)(C)CC3)OCO2 (centres unmarked)
Reply: 0

Task item: Say whether its % DAMGO + BFNA is strictly beneath 400%. Entry: COc1cc(OC)cc(C(=O)CC2c3c(cc4c(c3OC)OCO4)CC[N+]2(C)C)c1 (centres unmarked)
Reply: 1

Task item: Say whether its % DAMGO + BFNA is strictly beneath 400%. Entry: CC1CCC(C(C)C)C(OCC(O)CN2CCCN(C)CC2)C1 (centres unmarked)
Reply: 1

Task item: Say whether its % DAMGO + BFNA is strictly beneath 400%. Entry: CC1CCC(C(C)C)C(OCC(O)Cn2ccc3ccccc32)C1 (centres unmarked)
Reply: 1

###

target: mu opiate receptor (MOR) (Rattus norvegicus, UniProt P33535)
Construct: from tissue; host or cells: striatum (membrane preparation)
Type: biochemical
Hi there, I'd appreciate the recorded % DAMGO (0.1 μM) for every entry that follows.
Please give a number only; it is taken to be in %.

Task item: Can you share its % DAMGO (0.1 μM)? I mean this compound: COc1ccc(CCC(O)CC2c3c(cc4c(c3OC)OCO4)CC[N+]2(C)C)cc1 (centres unmarked)
Reply: 102.8

Task item: Can you share its % DAMGO (0.1 μM)? I mean this compound: O=S(=O)(c1ccc(Br)c(C(F)(F)F)c1)N1CCC2(CC1)OCCN2S(=O)(=O)c1ccc(Br)c(C(F)(F)F)c1
Reply: 109.5

Task item: Can you share its % DAMGO (0.1 μM)? I mean this compound: COc1c2c(cc3c1C(CC(=O)Cc1ccccc1F)[N+](C)(C)CC3)OCO2 (centres unmarked)
Reply: 91.8

Task item: Can you share its % DAMGO (0.1 μM)? I mean this compound: COc1c2c(cc3c1C(CC(O)CCc1ccccc1)N(C)CC3)OCO2 (centres unmarked)
Reply: 68.4

Task item: Can you share its % DAMGO (0.1 μM)? I mean this compound: COc1cccc(OC)c1C(=O)CC1c2c(cc3c(c2OC)OCO3)CC[N+]1(C)C (centres unmarked)
Reply: 99.4

Task item: Can you share its % DAMGO (0.1 μM)? I mean this compound: O=C1CN(Cc2ccccc2)C2(CCN(S(=O)(=O)c3cc(Cl)cc(Cl)c3O)CC2)N1 [Compound C0138M]
Reply: 86.3

Task item: Can you share its % DAMGO (0.1 μM)? I mean this compound: CC1CN(CC(O)COc2ccc(Br)c(F)c2)CC(C)O1 (centres unmarked)
Reply: 108.4

Task item: Can you share its % DAMGO (0.1 μM)? I mean this compound: CCOc1ccc(C(=O)CC2c3c(cc4c(c3OC)OCO4)CC[N+]2(C)C)cc1F (centres unmarked)
Reply: 30.1

Task item: Can you share its % DAMGO (0.1 μM)? I mean this compound: COc1c2c(cc3c1C(CC(=O)c1ccc(C#N)cc1)[N+](C)(C)CC3)OCO2 (centres unmarked)
Reply: 77.4

Task item: Can you share its % DAMGO (0.1 μM)? I mean this compound: CC(=O)c1ccc(S(=O)(=O)N2CCC3(CC2)OCC(CCCCN(C)C)N3S(=O)(=O)c2ccc(C(C)=O)cc2)cc1 (centres unmarked) [Compound C0080M]
Reply: 112.1

Task item: Can you share its % DAMGO (0.1 μM)? I mean this compound: COc1ccc(C(=O)CC2c3c(cc4c(c3OC)OCO4)CC[N+]2(C)C)cc1C (centres unmarked)
Reply: 75.9

Task item: Can you share its % DAMGO (0.1 μM)? I mean this compound: COc1ccc(C(=O)N2CCOC23CCN(S(=O)(=O)c2ccc(OC)cc2)CC3)cc1
Reply: 59.1

Task item: Can you share its % DAMGO (0.1 μM)? I mean this compound: COc1ccccc1C(=O)CC1c2c(cc3c(c2OC)OCO3)CC[N+]1(C)C (centres unmarked)
Reply: 96.3

Task item: Can you share its % DAMGO (0.1 μM)? I mean this compound: N#Cc1ccccc1S(=O)(=O)N1CCC2(CC1)OCCN2S(=O)(=O)c1ccccc1C#N
Reply: 72.1

Task item: Can you share its % DAMGO (0.1 μM)? I mean this compound: COc1ccc(S(=O)(=O)N2CCOC23CCN(C(C)C)CC3)cc1 [Compound C0133M]
Reply: 83.2

Task item: Can you share its % DAMGO (0.1 μM)? I mean this compound: COc1c2c(cc3c1C(CC(=O)Cc1ccccc1C)N(C)CC3)OCO2 (centres unmarked)
Reply: 94.8

Task item: Can you share its % DAMGO (0.1 μM)? I mean this compound: COc1ccc(S(=O)(=O)N2CCC3(CC2)OCCN3S(=O)(=O)c2ccc(OC)c(OC)c2)cc1OC
Reply: 73.5

Task item: Can you share its % DAMGO (0.1 μM)? I mean this compound: O=C(c1ccc([N+](=O)[O-])cc1)N1CCC2(CC1)OCCN2S(=O)(=O)c1ccc([N+](=O)[O-])cc1 [Compound C0022]
Reply: 113.5

Task item: Can you share its % DAMGO (0.1 μM)? I mean this compound: COc1ccc(CCCCC2c3c(cc4c(c3OC)OCO4)CC[N+]2(C)C)cc1 (centres unmarked)
Reply: 98.9

Task item: Can you share its % DAMGO (0.1 μM)? I mean this compound: O=S(=O)(c1ccc(Br)cc1C(F)(F)F)N1CCC2(CC1)OCCN2S(=O)(=O)c1ccc(Br)cc1C(F)(F)F
Reply: 53.4

Task item: Can you share its % DAMGO (0.1 μM)? I mean this compound: O=[N+]([O-])c1ccc(S(=O)(=O)N2CCC3(CC2)NCCCO3)cc1
Reply: 88.3

Task item: Can you share its % DAMGO (0.1 μM)? I mean this compound: COc1ccc(S(=O)(=O)N2CCC3(CC2)OCCN3S(=O)(=O)c2ccc(OC)cc2)cc1
Reply: 79.3

Task item: Can you share its % DAMGO (0.1 μM)? I mean this compound: CC(=O)c1ccc(S(=O)(=O)N2CCOC23CCNCC3)cc1
Reply: 197.4

Task item: Can you share its % DAMGO (0.1 μM)? I mean this compound: O=S(=O)(c1cccs1)N1CCC2(CC1)OCCN2S(=O)(=O)c1cccs1 [Compound C0141M]
Reply: 109.9

Task item: Can you share its % DAMGO (0.1 μM)? I mean this compound: COc1ccc(S(=O)(=O)N2CCOC23CCCNC3)cc1 (centres unmarked) [Compound C0145M-3]
Reply: 112.2

Task item: Can you share its % DAMGO (0.1 μM)? I mean this compound: CC(=O)c1ccc(S(=O)(=O)N2CC(=O)NC23CCNCC3)cc1 [Compound C0086M]
Reply: 117.5

Task item: Can you share its % DAMGO (0.1 μM)? I mean this compound: CC(=O)c1ccc(S(=O)(=O)N2CCC3(CC2)OCCN3S(C)(=O)=O)cc1
Reply: 68.0

Task item: Can you share its % DAMGO (0.1 μM)? I mean this compound: COc1ccc(C(=O)CC2c3c(cc4c(c3OC)OCO4)CC[N+]2(C)C)cc1 (centres unmarked)
Reply: 93.2

Task item: Can you share its % DAMGO (0.1 μM)? I mean this compound: O=S(=O)(c1ccc2ccccc2c1)N1CCC2(CC1)OCCN2S(=O)(=O)c1ccc2ccccc2c1 [Compound C0140M]
Reply: 85.8

Task item: Can you share its % DAMGO (0.1 μM)? I mean this compound: COc1ccc(CCC(=O)CC2c3c(cc4c(c3OC)OCO4)CC[N+]2(C)C)cc1 (centres unmarked)
Reply: 99.2

Task item: Can you share its % DAMGO (0.1 μM)? I mean this compound: O=S(=O)(c1ccccc1)N1CCC2(CC1)OCCN2S(=O)(=O)c1ccccc1
Reply: 100.4

Task item: Can you share its % DAMGO (0.1 μM)? I mean this compound: CC(=O)c1ccc(S(=O)(=O)N2CCC3(CC2)NCC(=O)N3Cc2ccccc2)cc1 [Compound C0082M]
Reply: 113.7
